assay.details: Displacement of [3H]DTG from sigma2 receptor in Sprague-Dawley rat liver membranes incubated for 2 hrs in presence of dextrallorphan by liquid scintillation counting based competitive radioligand binding assay
protocol.conditions: read-out: Ki(app)
pKi: −log10 of the molar value.
Class key for pKi values: Low (below 6), Medium (6 to below 7), High (7 or more)

Below, 8 molecules whose answers are already recorded.
>>> print(df.to_string())
                                   molecule  category_label
0  O[C@@H]1CCCC[C@H]1N1CCC(N2CCCCC2)CC1 (racemic)             Low
1  O=C(c1ccc(F)cc1)C1CCN([C@@H]2Cc3ccccc3C[C@H]2O)CC1 (racemic)          Medium
2  CC(=O)C1(c2ccccc2)CCN([C@@H]2C[C@H](OCc3ccc(F)cc3)CC[C@H]2O)CC1 (racemic)            High
3  O[C@@H]1CC[C@@H](OCc2ccc(F)cc2)C[C@H]1N1CCN(c2ccccc2)CC1 (racemic)          Medium
4  O=C(Nc1cccc2c1C[C@@H](N1CCC(c3ccccc3)CC1)[C@H](O)C2)c1ccc(F)cc1 (racemic)             Low
5  O[C@@H]1C[C@@H](OCc2ccc(F)cc2)CC[C@H]1N1CCC(c2ccccc2)(c2ccccc2)CC1 (racemic)             Low
6  O=C(c1ccc(F)cc1)C1CCN([C@@H]2C[C@H](OCc3ccc(F)cc3)CC[C@H]2O)CC1 (racemic)          Medium
7  O[C@@H]1C[C@@H](OCc2ccc(F)cc2)CC[C@H]1N1CCC(O)(c2ccccc2)CC1 (racemic)          Medium

Please turn your attention to the following entry.
# input Band of O[C@@H]1Cc2ccccc2C[C@H]1N1CCC(Cc2ccccc2)CC1 (racemic) ?
# output High

Every entry's value here was drawn from ChEMBL document CHEMBL3588818.
